Items are presented alongside their recorded growth.
- Test system: TK-10 renal
- Assay text: NCI-60 one-dose screen, 48 h (100 = growth as untreated, 0 = no growth, -100 = all killed)
- Run parameters: 10 µM unless noted
This is part of a sample that, as a whole, favours compounds with a hit. Of some 83,000 tested, about 20% had one in any assay.
Readout label: growth (%)

>  <Molecule>
CN(C)CCOC(=O)Nc1nc2ccc(Sc3ccccc3)cc2[nH]1

>  <Readout label>
growth

>  <Unit of measure>
%

>  <Experimental value>
49.4

$$$$
>  <Molecule>
Cn1cc(-c2cnn3c(N)c(Br)c([C@@H]4CCCNC4)nc23)cn1

>  <Readout label>
growth

>  <Unit of measure>
%

>  <Experimental value>
33.4

$$$$
>  <Molecule>
Clc1nc(Cl)c2ncn(CC#CCn3cnc4c(Cl)nc(Cl)nc43)c2n1

>  <Readout label>
growth

>  <Unit of measure>
%

>  <Experimental value>
-31.5

$$$$
>  <Molecule>
COc1cc(OC)c(/C=C/S(=O)(=O)Cc2ccc(OC)c(NCC(=O)O)c2)c(OC)c1

>  <Readout label>
growth

>  <Unit of measure>
%

>  <Experimental value>
49.7

$$$$
>  <Molecule>
Cc1cnc(NC(=O)Nc2cc(Br)c(C)cc2OC[C@@H]2CNCCO2)cn1

>  <Readout label>
growth

>  <Unit of measure>
%

>  <Experimental value>
28.8

$$$$
>  <Molecule>
Cc1ccc(-c2cc3c(SCC(=O)Nc4cc(C(F)(F)F)ccc4Cl)nccn3n2)cc1

>  <Readout label>
growth

>  <Unit of measure>
%

>  <Experimental value>
91.3

$$$$
>  <Molecule>
Cc1cc(Nc2ncc(Cl)c(Nc3ccccc3S(=O)(=O)C(C)C)n2)c(OC(C)C)cc1C1CCNCC1

>  <Readout label>
growth

>  <Unit of measure>
%

>  <Experimental value>
-96.1

$$$$
>  <Molecule>
COc1ccc(-c2ccc3ncc4c(c3c2)n(-c2ccc(N3CCNCC3)c(C(F)(F)F)c2)c(=O)n4C)cn1

>  <Readout label>
growth

>  <Unit of measure>
%

>  <Experimental value>
-90.2

$$$$
>  <Molecule>
COc1cc2c(cc1OCCCN1Cc3ccc(OCCCCC(=O)N4CCC(CCN5CCCC5)CC4)cc3C1)N=C(N)C21CCCC1

>  <Readout label>
growth

>  <Unit of measure>
%

>  <Experimental value>
99.3

$$$$
>  <Molecule>
NC(=O)c1c(OCc2c(F)cc(Br)cc2F)nsc1NC(=O)NCCCCN1CCCC1

>  <Readout label>
growth

>  <Unit of measure>
%

>  <Experimental value>
-1.76

$$$$
>  <Molecule>
O=C(NCCO)Nc1ccc(-c2nc(N3CCOCC3)c3cccn3n2)cc1

>  <Readout label>
growth

>  <Unit of measure>
%

>  <Experimental value>
-23.5

$$$$
>  <Molecule>
Cc1c(Cn2c(C)nc3c(C(=O)O)cc(N4CCOCC4)cc32)cccc1C(F)(F)F

>  <Readout label>
growth

>  <Unit of measure>
%

>  <Experimental value>
84.1

$$$$
>  <Molecule>
CSc1nc2ncnc(SC)c2[nH]1

>  <Readout label>
growth

>  <Unit of measure>
%

>  <Experimental value>
99.8

$$$$
>  <Molecule>
O=[N+]([O-])c1cc(Br)cc2c1[nH]c1ccc(Br)cc12

>  <Readout label>
growth

>  <Unit of measure>
%

>  <Experimental value>
52.8

$$$$
>  <Molecule>
CN1CCN(CC(=O)Nc2ccc(-c3nc4ccccc4s3)cc2)CC1

>  <Readout label>
growth

>  <Unit of measure>
%

>  <Experimental value>
94.8

$$$$
>  <Molecule>
Cc1ccccc1Nc1nc2nonc2nc1Nc1cccc(C)c1C

>  <Readout label>
growth

>  <Unit of measure>
%

>  <Experimental value>
56.4

$$$$
>  <Molecule>
COc1cc(-c2nc(C(=O)Nc3ccc(C)cc3)nn2-c2ccc(F)c(F)c2)cc(OC)c1OC

>  <Readout label>
growth

>  <Unit of measure>
%

>  <Experimental value>
98.8

$$$$
>  <Molecule>
COc1cc(NC2CCC(=O)N2c2ccc(Cl)cc2Cl)cc(OC)c1OC (stereo unspecified)

>  <Readout label>
growth

>  <Unit of measure>
%

>  <Experimental value>
104

$$$$
>  <Molecule>
COc1ccc(C2OC(c3cc(-c4cc5ccccc5o4)nn3-c3ccccc3)=NN2C(C)=O)cc1 (stereo unspecified)

>  <Readout label>
growth

>  <Unit of measure>
%

>  <Experimental value>
111

$$$$
>  <Molecule>
CCOC(=O)C1=C(C)N=C2Sc3cccc(OC)c3N2[C@H]1c1ccccn1

>  <Readout label>
growth

>  <Unit of measure>
%

>  <Experimental value>
117

$$$$
>  <Molecule>
CC(=O)Nc1cccc(-n2c(=O)n(C3CC3)c(=O)c3c(Nc4ccc(I)cc4F)n(C)c(=O)c(C)c32)c1

>  <Readout label>
growth

>  <Unit of measure>
%

>  <Experimental value>
21.8

$$$$
>  <Molecule>
CC(C)c1ccc(/C=N/Nc2nc3ccccc3s2)cc1

>  <Readout label>
growth

>  <Unit of measure>
%

>  <Experimental value>
148

$$$$
>  <Molecule>
O=C(Nc1ccc(C(=O)Nc2ccc(C3=NCCCN3)cc2)cc1)Nc1ccc(C2=NCCCN2)cc1

>  <Readout label>
growth

>  <Unit of measure>
%

>  <Experimental value>
96.7

$$$$
>  <Molecule>
Cc1cn(-c2cc(NC(=O)c3ccc(C)c(Nc4nccc(-c5cnccn5)n4)c3)cc(C(F)(F)F)c2)cn1

>  <Readout label>
growth

>  <Unit of measure>
%

>  <Experimental value>
102

$$$$
>  <Molecule>
ClCc1ccc(-c2ccc(Cn3cnc4c(Cl)nc(Cl)nc43)cc2)cc1

>  <Readout label>
growth

>  <Unit of measure>
%

>  <Experimental value>
-67.8

$$$$
>  <Molecule>
Nc1nc(N)c2cc(CNc3ccc(C(=O)NC(CC(=O)O)C(=O)O)cc3)ccc2n1 (stereo unspecified)

>  <Readout label>
growth

>  <Unit of measure>
%

>  <Experimental value>
61.2

$$$$

Each recorded value in this set is attributed to PubChem BioAssay (NCI).
